target: BACE1 (Homo sapiens); construct: Human HEK293 cells which are stably transfected with a vector expressing a cDNA of the human APP wt gene (APP695); endogenous in cells; host or cells: HEK293 (human), stably transfected with human APP695 wt cDNA; test: Cellular Aβ-lowering assay (Aβ40 ELISA of culture supernatant); format: cell-based; conditions: exosite motifs alone; HEK293 cells stably transfected with human APP wt (APP695); Aβ40 in supernatant; read-out: IC 50
Sequence (P56817 46-501): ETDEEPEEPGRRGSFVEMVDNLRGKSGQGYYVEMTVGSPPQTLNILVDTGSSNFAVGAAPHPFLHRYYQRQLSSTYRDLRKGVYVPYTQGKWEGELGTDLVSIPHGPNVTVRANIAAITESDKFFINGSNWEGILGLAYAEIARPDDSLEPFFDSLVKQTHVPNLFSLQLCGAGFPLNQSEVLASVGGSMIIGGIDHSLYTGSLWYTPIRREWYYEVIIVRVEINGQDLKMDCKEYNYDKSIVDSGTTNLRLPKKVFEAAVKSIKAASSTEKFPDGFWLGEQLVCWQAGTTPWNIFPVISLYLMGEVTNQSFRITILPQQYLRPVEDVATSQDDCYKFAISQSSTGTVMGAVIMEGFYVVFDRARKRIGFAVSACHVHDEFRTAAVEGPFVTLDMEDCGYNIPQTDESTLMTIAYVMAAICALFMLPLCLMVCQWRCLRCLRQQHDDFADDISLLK
pIC50: −log10 of the molar value. Peptide text beside a SMILES is read from it.
pIC50 values, listed per item

CC(=O)N[C@@H](CCC(N)=O)C(=O)N[C@@H](CCC(N)=O)C(=O)N[C@@H](Cc1ccc(O)cc1)C(=O)N1CCC[C@H]1C(=O)N[C@@H](Cc1ccc(O)cc1)C(=O)N[C@@H](Cc1ccccc1)C(=O)N[C@@H](CCCCN)C(=O)N1CCC[C@H]1C(=O)N[C@@H](C)C(=O)N[C@@H](CC(N)=O)C(N)=O [Example E1] (Ac-QQYPYFKPAN-NH2) ... < 4.40
CC[C@H](C)[C@H](NC(=O)[C@H](Cc1ccccc1)NC(=O)[C@H](CCCCN)NC(=O)[C@@H]1CCCN1C(=O)[C@H](Cc1ccc(O)cc1)NC(=O)[C@H](CC(=O)O)NC(=O)CNC(C)=O)C(=O)N1CCC[C@H]1C(=O)N[C@@H](C)C(=O)N[C@@H](CO)C(N)=O [Example E5] (Ac-GDYPKFIPAS-NH2) ... < 4.40
CC[C@H](C)[C@H](NC(=O)[C@H](Cc1ccccc1)NC(=O)[C@H](CCCNC(=N)N)NC(=O)[C@H](C)NC(=O)CNC(=O)[C@@H](NC(=O)[C@H](CO)NC(C)=O)[C@@H](C)O)C(=O)N1CCC[C@H]1C(=O)N[C@@H](C)C(=O)N[C@@H](CC(N)=O)C(N)=O [Example E3] (Ac-STGARFIPAN-NH2) ... < 4.40

// sample CC[C@H](C)[C@H](NC(=O)[C@H](Cc1ccccc1)NC(=O)[C@H](CCCCN)NC(=O)[C@@H]1CCCN1C(=O)[C@H](Cc1ccc(O)cc1)NC(=O)[C@H](CC(=O)O)NC(=O)CNC(C)=O)C(=O)N[C@@H](CO)C(=O)N[C@@H](C)C(=O)N[C@@H](CC(N)=O)C(N)=O [Example E4] (Ac-GDYPKFISAN-NH2) , its pIC50 was < 4.40

compound CC[C@H](C)[C@H](NC(=O)[C@H](Cc1ccccc1)NC(=O)[C@H](CCCCN)NC(=O)[C@@H]1CCCN1C(=O)[C@H](Cc1ccc(O)cc1)NC(=O)[C@H](CO)NC(=O)CNC(C)=O)C(=O)N[C@@H](CC(=O)O)C(=O)N[C@@H](C)C(=O)N[C@@H](CC(N)=O)C(N)=O [Example E6] (Ac-GSYPKFIDAN-NH2) , pIC50 observed: < 4.40
